Assay: Quantitative High-Throughput drug screen in 47 multiple myeloma cell lines against the NCATS MIPE library collection: INA6_PLB cell viability assay (AID 1918965; note: nearly all actives have a fitted effect of over 55% in size)
Conditions: INA6 myeloma viability, CellTiter-Glo ATP luminescence, 48 h; series mostly up to 45.8 µM
Records with an inconclusive call do not appear. Calls of active or inactive are those of the source. Calls come from the whole dose curve; as a rule, active = well fitted cell-killing curve with a large enough effect; inconclusive = small, poorly fitted or top-dose-only effect, or effect the other way; inactive = no such curve, though single readings can be large or run the other way.
Outcome codes: active, inactive

{"compound": "O=C1c2c(O)cccc2[C@@H]([C@@H]2O[C@H](CO)[C@@H](O)[C@H](O)[C@H]2O)c2cc(CO)cc(O)c21", "qualitative label": "inactive"}
{"compound": "CCc1nc(-c2cccc(C)c2)c(-c2ccnc(NC(=O)c3ccccc3)c2)s1", "qualitative label": "active"}
{"compound": "N#CC(=C(O)c1ccc(Cl)cc1Cl)c1nc2cc(Cl)ccc2c(=O)[nH]1", "qualitative label": "inactive"}
{"compound": "COc1cccc2c1C(=O)c1c(O)c3c(c(O)c1C2=O)C[C@@](O)(C(C)=O)C[C@H]3O[C@H]1C[C@H](N)[C@H](O)[C@H](C)O1", "qualitative label": "active"}
{"compound": "COc1cccc2c1C(=O)c1c(O)c3c(c(O)c1C2=O)C[C@@](O)(C(=O)CO)C[C@@H]3O[C@H]1C[C@H](N)[C@H](OC2CCCCO2)[C@H](C)O1 (some centres not stated)", "qualitative label": "active"}
{"compound": "CC[C@@]1([C@@H]2O[C@@H]([C@H]3O[C@@](O)(CO)[C@H](C)C[C@H]3C)C[C@H]2C)CC[C@H]([C@]2(C)CC[C@]3(C[C@H](O)[C@@H](C)[C@@H]([C@@H](C)[C@@H](OC)[C@H](C)C(=O)O)O3)O2)O1", "qualitative label": "active"}
{"compound": "CC1(C)CC(O)CC(C)(C)N1[O]", "qualitative label": "inactive"}

---

Experiment: Quantitative High-Throughput drug screen in 47 multiple myeloma cell lines against the NCATS MIPE library collection: JIM3_ECACC cell viability assay (AID 1918963; note: nearly all actives have a fitted effect of over 35% in size; note: potency is the fitted concentration of half-maximal effect)
Conditions: JIM3 myeloma viability, CellTiter-Glo ATP, 48 h; series mostly up to 45.8 µM
Excerpt: PI: Beverly A. Mock Ph.D. Laboratory of Cancer Biology and Genetics, Center for Cancer Research, National Cancer Institute, National Institute of Health, Bethesda, Maryland […] 5; Detector; 425V; Luminescence; Viewlux PerkinElmer. […] 1. […] Briefly, the corresponding myeloma cell lines were screened in 1,536-well plates with 500 cells, 5-uL per well for inhibition of cell viability (assessed by measuring ATP levels with CellTiterGlo). […]
Records with an inconclusive call do not appear. Activity calls are given as the source filed them. The call rests on the fitted dose curve; in most records, active means well fitted cell-killing curve with a large enough effect; inconclusive means small, poorly fitted or top-dose-only effect; inactive means no such curve, though single readings can be large or run the other way.
attribute measured: Potency

{"compound": "C[N+](C)([O-])CCNc1ccc(NCC[N+](C)(C)[O-])c2c1C(=O)c1c(O)ccc(O)c1C2=O", "result": "inactive"}
{"compound": "CC(C)(O)[C@H]1CC[C@@](C)([C@H]2[C@@H](O)C[C@@]3(C)[C@@H]4C[C@H](O[C@@H]5O[C@H](CO)[C@@H](O)[C@H](O)[C@@H]5O)[C@H]5C(C)(C)[C@@H](O[C@@H]6OC[C@@H](O)[C@H](O)[C@@H]6O)CC[C@@]56C[C@@]46CC[C@]23C)O1", "result": "inactive"}
{"compound": "Oc1cc(-c2nc(-c3ccccc3)[nH]c2-c2ccncc2)ccc1Cl", "result": "20.9 µM (active)"}
{"compound": "CN1CCc2c(c3ccccc3n2Cc2ccc(C(=O)NO)cc2)C1", "result": "23.5 µM (active)"}
{"compound": "C[C@H]1O[C@H](O[C@H]2[C@H](O)[C@@H](O)[C@@H](O[C@H]3[C@H](O)[C@@H](O)C(O)O[C@H]3CO)O[C@H]2CO)[C@H](O)[C@@H](O)[C@H]1N[C@H]1C=C(CO)[C@@H](O)[C@H](O)[C@@H]1O (stereo partly specified)", "result": "inactive"}
{"compound": "COc1cc(N2CCC(C(N)=O)CC2)ccc1Nc1nc(N)c(Cl)c(Nc2ccccc2S(=O)(=O)C(C)C)n1", "result": "0.166 µM (active)"}

# credit: PubChem BioAssay (NCATS)
